conditions: simulated gi fluid, FaSSIF only half-life
Readings of half-life for the listed compounds

| COMPOUND | half-life |
| --- | --- |
| C=C1NC(=O)[C@H](Cc2c[nH]c3ccccc23)NC(=O)[C@H](NC(=O)[C@H](CCCCN)NC(=O)[C@@H](N)[C@@H](C)CC)CSC[C@@H](C(=O)N[C@H]2C(=O)N3CCC[C@H]3C(=O)NCC(=O)N[C@H](C(=O)N[C@@H](C)C(=O)N[C@@H](CC(N)=O)C(=O)NC(=CC)C(=O)N[C@@H](C)C(=O)N[C@@H]3CSC[C@@H]4NC(=O)[C@H](Cc5ccc(O)cc5)NC(=O)[C@@H](CS/C=C\NC4=O)NC(=O)[C@H](CC(N)=O)NC(=O)[C@H](Cc4ccccc4)NC3=O)CS[C@H]2C)NC(=O)[C@H](CC(C)C)NC1=O [F1I R13N G15A] | > 12 h |

Summary for this compound, C=C1NC(=O)[C@H](Cc2c[nH]c3ccccc23)NC(=O)[C@H](NC(=O)[C@H](CCCCN)NC(=O)[C@@H](N)C(C)C)CSC[C@@H](C(=O)N[C@H]2C(=O)N3CCC[C@H]3C(=O)NCC(=O)N[C@H](C(=O)N[C@@H](C)C(=O)N[C@@H](CC(N)=O)C(=O)N/C(=C\C)C(=O)NCC(=O)N[C@@H]3CSC[C@@H]4NC(=O)[C@H](Cc5ccc(O)cc5)NC(=O)[C@@H](CS/C=C\NC4=O)NC(=O)[C@H](CC(N)=O)NC(=O)[C@H](Cc4ccccc4)NC3=O)CS[C@H]2C)NC(=O)[C@H](CC(C)C)NC1=O [F1V R13N] : half-life is > 12 h

* * *

assay: in vitro; conditions: simulated gi fluid
TEST READOUT: half-life

| COMPOUND | half-life |
| --- | --- |
| C=C1NC(=O)[C@H](Cc2c[nH]c3ccccc23)NC(=O)[C@H](NC(=O)[C@H](CCCCN)NC(=O)[C@@H](N)[C@@H](C)CC)CSC[C@@H](C(=O)N[C@H]2C(=O)N3CCC[C@H]3C(=O)NCC(=O)N[C@H](C(=O)N[C@@H](C)C(=O)N[C@@H](CC(N)=O)C(=O)NC(=CC)C(=O)NCC(=O)N[C@@H]3CSC[C@@H]4NC(=O)[C@H](Cc5ccc(O)cc5)NC(=O)[C@@H](CS/C=C\NC4=O)NC(=O)[C@H](CC(N)=O)NC(=O)[C@H](Cc4ccccc4)NC3=O)CS[C@H]2C)NC(=O)[C@H](CC(C)C)NC1=O [F1I R13N] | > 24 h |

// below: half-life requested for another compound
Short answer for C=C1NC(=O)[C@H](Cc2c[nH]c3ccccc23)NC(=O)[C@H](NC(=O)[C@H](CCCCN)NC(=O)[C@@H](N)[C@@H](C)CC)CSC[C@@H](C(=O)N[C@H]2C(=O)N3CCC[C@H]3C(=O)NCC(=O)N[C@H](C(=O)N[C@@H](C)C(=O)N[C@@H](CC(=O)O)C(=O)NC(=CC)C(=O)NCC(=O)N[C@@H]3CSC[C@@H]4NC(=O)[C@H](Cc5ccc(O)cc5)NC(=O)[C@@H](CS/C=C\NC4=O)NC(=O)[C@H](CC(N)=O)NC(=O)[C@H](Cc4ccccc4)NC3=O)CS[C@H]2C)NC(=O)[C@H](CC(C)C)NC1=O [F1I R13D] : half-life was > 24 h
